Biological target: G-protein coupled bile acid receptor 1 (Homo sapiens)
Sequence (Q8TDU6 whole entry): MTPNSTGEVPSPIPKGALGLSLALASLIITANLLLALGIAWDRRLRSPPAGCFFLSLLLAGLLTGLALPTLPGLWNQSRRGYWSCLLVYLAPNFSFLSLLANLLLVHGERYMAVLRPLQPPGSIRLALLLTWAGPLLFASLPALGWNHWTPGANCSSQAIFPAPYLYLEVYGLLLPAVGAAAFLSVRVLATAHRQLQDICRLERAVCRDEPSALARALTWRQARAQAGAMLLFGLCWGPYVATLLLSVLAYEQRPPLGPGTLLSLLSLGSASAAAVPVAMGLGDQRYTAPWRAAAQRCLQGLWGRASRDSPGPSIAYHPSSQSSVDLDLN
Test: TGR5/CRE Luciferase Assay: In the following tables TGR5 activation by compounds and subsequent increase in intracellular cAMP were evaluated using a luciferase reporter gene assay. Human embryonic kidney (HEK) 293 cells were transiently co-transfected with pCMV tag4b-TGR5 h (to follow hTGR5 activation) or pCMV AC6-TGR5m (to follow mTGR5 activation) expression plasmids and the pCRE TA-Luciferase reporter plasmid using the JET PEI reagent (Polyplus transfection). Transfected cells were seeded in 96-well plates and incubated overnight with the test compounds at increasing concentrations tested in duplicate. Lithocolic acid (LCA) at 10 μM was used as a positive reference compound. The cAMP-dependent luciferase expression was followed using the BrightGlo reagent according to the manufacturer (Promega) instructions. Luminescence was read with a Mithras plate reader (Berthold). […] Concentration-response curves were fitted by a nonlinear regression analysis to a 4 parameter logistic equation.
pEC50: −log10 of the molar value.
observedProperty: pEC50

Here is how some molecules turned out for pEC50.
[[record]]
smilestext = "COCCOCCOCCOCCOCCOCCOCCOCCOCCOCCOCCOCCOCCOCCOCCOCCOc1cc(F)c(CSc2ncc(N(C)c3ccc(OC)c(OC)c3)n2-c2ccc(F)c(OC)c2)c(F)c1"
observedproperty = "pEC50"
experimentalresult = 6.48

[[record]]
smilestext = "COCCOCCOCCOCCOCCOCCOCCOCCOCCOCCOCCOCCOCCOCCOCCOCCOCCOCCOCCOCCOCCOCCOCCOCCOCCOCCOCCOCCOCCOCCOCCOCCOCCOCCOCCOCCOCCOc1cc(F)c(CSc2ncc(N(C)c3ccc(OC)c(OC)c3)n2-c2ccc(F)cc2)c(F)c1"
observedproperty = "pEC50"
experimentalresult = 5.92


[1] COCCOCCOCCOCCOCCOCCOCCOCCOCCOCCOc1cc(F)c(CSc2ncc(N(C)c3ccc(OC)c(OC)c3)n2-c2ccc(F)cc2)c(F)c1
[2] COCCOCCOCCOCCOCCOCCOCCOCCOCCOc1cc(F)c(CSc2ncc(N(C)c3ccc(OC)c(OC)c3)n2-c2ccc(F)cc2)c(F)c1
Enquiry: Quick one: lower pEC50, 1 or 2 ? // output: label of the selected item
Return: 1
(1: 6.24, 2: 6.80)
